- Tested System: Cytochrome P450 1A2 (Homo sapiens)
- Sequence (P05177 whole entry): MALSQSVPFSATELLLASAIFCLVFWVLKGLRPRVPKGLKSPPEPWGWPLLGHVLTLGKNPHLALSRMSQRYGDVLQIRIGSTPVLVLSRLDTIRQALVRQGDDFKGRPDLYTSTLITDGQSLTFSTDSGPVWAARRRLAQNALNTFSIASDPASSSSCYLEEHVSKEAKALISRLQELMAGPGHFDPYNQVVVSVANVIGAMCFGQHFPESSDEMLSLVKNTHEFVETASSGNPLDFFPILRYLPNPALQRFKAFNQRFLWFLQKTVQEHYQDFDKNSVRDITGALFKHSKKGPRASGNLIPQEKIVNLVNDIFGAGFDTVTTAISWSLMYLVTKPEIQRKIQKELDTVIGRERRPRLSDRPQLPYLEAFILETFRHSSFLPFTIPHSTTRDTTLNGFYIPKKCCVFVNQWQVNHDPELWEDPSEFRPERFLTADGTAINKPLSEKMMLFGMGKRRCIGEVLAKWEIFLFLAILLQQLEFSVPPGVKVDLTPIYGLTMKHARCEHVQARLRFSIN
- Assay Overview: Inhibition of CYP1A2
- Assay type: ADME
# INH per record follows

The cases that follow already have their INH on record.
>  <Compound>
CCCS(=O)(=O)c1ccc2[nH]c(C3CCOC(c4ccccc4)C3)nc2c1 (mixture of isomers)

>  <Measured>
> 20 µM

$$$$
>  <Compound>
CCS(=O)(=O)c1ccc2[nH]c(N3CCOC(c4ccc(OC)cc4)C3)nc2c1 (centres undefined)

>  <Measured>
> 20 µM

$$$$

Would you kindly share the measured INH for CC(C)CS(=O)(=O)c1ccc2[nH]c(N3CCOC(c4ccccc4)C3)nc2c1 (centres undefined) ?
> 20 µM

Give its INH value. Item: O=S(=O)(CC(F)(F)F)c1ccc2[nH]c(N3CCOC(c4ccccc4)C3)nc2c1 (centres undefined)
> 20 µM

Can you share its INH? I mean this compound: O=S(=O)(c1ccc2nc(N3CCOC(c4ccccc4)C3)[nH]c2c1)C(F)(F)F (centres undefined)
17 µM

For CCCS(=O)(=O)c1ccc2[nH]c(N3CCNC(c4ccccc4)C3)nc2c1 (centres undefined) , what is its reported INH?
> 20 µM

Which INH value is on record for CC(C)(C)S(=O)(=O)c1ccc2[nH]c(N3CCOC(c4ccccc4)C3)nc2c1 (centres undefined) ?
> 20 µM

Record request: INH value, item CCS(=O)(=O)c1ccc2[nH]c(N3CCOC(c4ccc(C)cc4)C3)nc2c1 (centres undefined)
> 20 µM

Given the compound CCCS(=O)(=O)c1ccc2nc(N3CCOC(c4ccccc4)C3)[nH]c2c1 (centres undefined) , what is its reported INH?
> 20 µM

Can you look up the measured INH of CCS(=O)(=O)c1ccc2nc(N3CCOC(c4ccccc4)C3)[nH]c2c1 (centres undefined) for me?
> 20 µM

# get_value(readout='INH', item= CCCS(=O)(=O)c1ccc2[nH]c(C3CN(c4ccccc4)CCO3)nc2c1 (centres undefined) )
> 20 µM

Fill in: INH of CCCS(=O)(=O)c1ccc2nc(N3CCN(C)C(c4ccccc4)C3)[nH]c2c1 (centres undefined) is ___
> 20 µM

Field request: INH | item: CCS(=O)(=O)c1ccc2[nH]c(N3CCOC(c4ccc(F)cc4)C3)nc2c1 (centres undefined)
> 20 µM

// INH lookup, key: CC(C)S(=O)(=O)c1ccc2nc(N3CCOC(c4ccccc4)C3)[nH]c2c1 (centres undefined)
15 µM

What value of INH has been recorded for this entry: CCCS(=O)(=O)c1ccc2nc(N3CCCC(c4ccccc4)C3)[nH]c2c1 (centres undefined)
> 20 µM
